Hey, just so you know, these numbers are from patent US20260258048A1.

- Target Of Assay: IL-17A(FLAG-tagged): IL-17RA(His-tagged) (Homo sapiens, UniProt Q16552, K93Q)
- Sequence (Q16552 with tags, fused parts or gaps K93Q): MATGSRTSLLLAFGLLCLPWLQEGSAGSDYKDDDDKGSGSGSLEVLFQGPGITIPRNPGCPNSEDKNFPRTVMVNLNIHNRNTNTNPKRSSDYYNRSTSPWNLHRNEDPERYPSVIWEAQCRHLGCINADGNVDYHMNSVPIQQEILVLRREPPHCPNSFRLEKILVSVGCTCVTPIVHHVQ
- Measurement Protocol: IL-17A(FLAG-tagged): IL-17RA(His-tagged) binding disruption Eu-HTRF assay
- Assay Conditions: class of the average IC50 where tested more than once
Collected IC50 values appear next to each entry.

Compound	IC50
O=C(N[C@H](c1cn2ncc([C@H]3C[C@]34C[C@@H](C(F)(F)F)NC4=O)cc2n1)C1CCC(F)(F)CC1)c1nonc1C1CC1 (single isomer, unassigned)	> 4 µM
CC1(Cc2cnn3cc([C@@H](NC(=O)c4nonc4C4CC4)C4CCC(F)(F)CC4)nc3c2)CCNC1=O (single isomer, unassigned) [Example 54]	0.4 to 4 µM
Cc1nonc1C(=O)N[C@H](c1cn2ncc(C[C@H]3CC[C@H](C(F)(F)F)NC3=O)cc2n1)C1CCC(F)(F)CC1 (relative stereo)	> 4 µM
O=C(N[C@H](c1cn2ncc(CC3CC4(CC4)NC3=O)cc2n1)C1CCC(F)(F)CC1)c1nonc1C1CC1 (some centres unmarked)	0.4 to 4 µM
CC(C)[C@H]1C[C@H](Cc2cnn3cc([C@@H](NC(=O)c4nonc4C4CC4)C4CCC(F)(F)CC4)nc3c2)C(=O)N1 (relative stereo)	0.4 to 4 µM
